All values here come from PubChem BioAssay AID1063.

Assay: Leishmania major promastigote growth inhibition, primary screen (AID 1063);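 note: promastigotes grown with compound for 44 hours at 28 °C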
Conditions: Leishmania major promastigotes, resazurin fluorescence viability; at 10 µM; stronger effect = higher value
Among all 200,000 compounds or so, about 18,000 (9%) were called active. The list comes from a sample in which actives are over-represented; it also holds close analogues and randomly drawn compounds.
Listing of recorded inhibition by entry.

>  <molecule>
COCCCNCCOCCOc1ccc(Cl)cc1Br

>  <inhibition [%]>
91.2

$$$$
>  <molecule>
Clc1ccc(C2=CSC3=Nc4cccc5cccc(c45)N23)cc1

>  <inhibition [%]>
99.4

$$$$
>  <molecule>
COc1ccc(OCC(=O)N2CCN(C(=O)COc3ccccc3)CC2)cc1

>  <inhibition [%]>
-5.93

$$$$
>  <molecule>
Cc1c(CN2CCC(CO)(CCOc3ccccc3)CC2)[nH]c2ccc(Cl)cc12

>  <inhibition [%]>
100

$$$$
>  <molecule>
CN(CCOc1ccccc1)Cc1nc2cc(Cl)ccc2c(=O)[nH]1

>  <inhibition [%]>
7.34

$$$$
>  <molecule>
CC1CN(C2CCN(C(=O)COc3ccccc3)CC2)CC(C)O1 (configuration not stated)

>  <inhibition [%]>
88.1

$$$$
>  <molecule>
CC(C)CCC(C)NC(=O)c1ccc2nccnc2c1 (configuration not stated)

>  <inhibition [%]>
11.2

$$$$
>  <molecule>
COc1ccc(OCC(=O)N2CCOCC2)cc1

>  <inhibition [%]>
0.46

$$$$
>  <molecule>
COC(=O)C(C(=O)Nc1cccc(Cl)c1C)C1CCCC1 (configuration not stated)

>  <inhibition [%]>
-0.21

$$$$
>  <molecule>
Cc1cccc(C(=O)OCC(=O)NCC(C)C)c1O

>  <inhibition [%]>
-1.6

$$$$
>  <molecule>
COCCNCCOCCOc1cccc(OC)c1

>  <inhibition [%]>
1.86

$$$$
>  <molecule>
OCC1(CCOc2ccccc2)CCN(Cc2cn[nH]c2-c2ccccc2)CC1

>  <inhibition [%]>
-2.84

$$$$

----------
Test: Leishmania major promastigote growth inhibition, primary screen (AID 1063);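 note: promastigotes grown with compound for 44 hours at 28 °C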
Settings: Leishmania major promastigotes, resazurin fluorescence viability; at 10 µM; stronger effect = higher value
Screen size: about 200,000 compounds; about 18,000 (9%) were called active. Shown is part of a subset that was picked to be rich in actives.
assay-readout: inhibition (%)

>  <compound>
Cc1ccc(C)c(Cn2cnc3c(oc4ccccc43)c2=O)c1

>  <assay-readout>
inhibition

>  <unit-symbol>
%

>  <recorded-number>
-7.39

$$$$
>  <compound>
CCCn1c(N)c(C(=O)CSc2nc3ccccc3c(=O)n2-c2ccc(OC)cc2)c(=O)[nH]c1=O

>  <assay-readout>
inhibition

>  <unit-symbol>
%

>  <recorded-number>
-3.93

$$$$
>  <compound>
COc1ccc(Cl)cc1C(=O)NNC(=S)NC(=O)/C=C/c1ccco1

>  <assay-readout>
inhibition

>  <unit-symbol>
%

>  <recorded-number>
18.7

$$$$
>  <compound>
Cn1c(=O)c2c(nc(N/N=C/c3cccs3)n2Cc2ccc(Br)cc2)n(C)c1=O

>  <assay-readout>
inhibition

>  <unit-symbol>
%

>  <recorded-number>
60.3

$$$$
>  <compound>
COc1ccc(N2C(=O)/C(=C\c3ccco3)N=C2SCC(N)=O)cc1Cl

>  <assay-readout>
inhibition

>  <unit-symbol>
%

>  <recorded-number>
51.5

$$$$
>  <compound>
COc1ccc(C2CC(c3ccccc3)=NN2C(=O)CSc2nccc(=O)[nH]2)cc1 (configuration not stated)

>  <assay-readout>
inhibition

>  <unit-symbol>
%

>  <recorded-number>
-0.2

$$$$
>  <compound>
O=C(Nc1ccc(Br)cn1)c1ccc([N+](=O)[O-])o1

>  <assay-readout>
inhibition

>  <unit-symbol>
%

>  <recorded-number>
100

$$$$
>  <compound>
O=C(CSc1nnnn1-c1ccc(O)cc1)N1N=C(c2ccc3ccccc3c2)CC1c1ccccc1 (configuration not stated)

>  <assay-readout>
inhibition

>  <unit-symbol>
%

>  <recorded-number>
99.8

$$$$
>  <compound>
COc1cc(NC(=O)c2ccccc2NS(=O)(=O)c2ccc(Cl)s2)cc(OC)c1

>  <assay-readout>
inhibition

>  <unit-symbol>
%

>  <recorded-number>
74.3

$$$$
>  <compound>
O=C(Cn1ncc(N2CCCC2)c(Br)c1=O)c1ccc(Cl)cc1

>  <assay-readout>
inhibition

>  <unit-symbol>
%

>  <recorded-number>
1.31

$$$$
>  <compound>
S=C(NCc1ccco1)Nc1ccc2c(c1)OCCO2

>  <assay-readout>
inhibition

>  <unit-symbol>
%

>  <recorded-number>
-4.58

$$$$
>  <compound>
Cn1c(=O)c2c(nc(NCCc3ccccc3)n2Cc2ccccc2)n(C)c1=O

>  <assay-readout>
inhibition

>  <unit-symbol>
%

>  <recorded-number>
15.1

$$$$
>  <compound>
C=CCn1c(N)c(C(=O)OCC(C)C)c2nc3ccccc3nc21

>  <assay-readout>
inhibition

>  <unit-symbol>
%

>  <recorded-number>
61

$$$$
>  <compound>
COc1ccc([N+](=O)[O-])cc1NC(=O)COC(=O)/C=C/c1ccco1

>  <assay-readout>
inhibition

>  <unit-symbol>
%

>  <recorded-number>
-8.41

$$$$
>  <compound>
O=C(Nc1cccn(Cc2ccccc2Cl)c1=O)NC1CCCCC1

>  <assay-readout>
inhibition

>  <unit-symbol>
%

>  <recorded-number>
17.9

$$$$
>  <compound>
C=CCn1c(N)c(S(=O)(=O)c2cccs2)c2nc3ccccc3nc21

>  <assay-readout>
inhibition

>  <unit-symbol>
%

>  <recorded-number>
4.67

$$$$
>  <compound>
COc1ccc(CN(C)Cc2nc3cc(OC)c(OC)cc3c(=O)[nH]2)c(OC)c1

>  <assay-readout>
inhibition

>  <unit-symbol>
%

>  <recorded-number>
1.39

$$$$
>  <compound>
O=C(Nc1ccc(Br)cn1)c1ccc([N+](=O)[O-])cc1Cl

>  <assay-readout>
inhibition

>  <unit-symbol>
%

>  <recorded-number>
13.7

$$$$
>  <compound>
COc1ccc(NC(=O)NC2CC3CCCC(C2)N3Cc2ccccc2)cc1 (configuration not stated)

>  <assay-readout>
inhibition

>  <unit-symbol>
%

>  <recorded-number>
66.9

$$$$
>  <compound>
CCSc1sc(CC)cc1C=O

>  <assay-readout>
inhibition

>  <unit-symbol>
%

>  <recorded-number>
5.02

$$$$
>  <compound>
CC(C)Cn1c(N)c(C(=O)NCc2cccs2)c2nc3ccccc3nc21

>  <assay-readout>
inhibition

>  <unit-symbol>
%

>  <recorded-number>
40.8

$$$$
>  <compound>
C=CCn1c(CC(=O)Nc2cccc(OC)c2)nnc1SCC(=O)NC1CCCCC1

>  <assay-readout>
inhibition

>  <unit-symbol>
%

>  <recorded-number>
-2.71

$$$$

----------
Listing of recorded inhibition by entry.
Test: Leishmania major promastigote growth inhibition, primary screen (AID 1063);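 note: promastigotes grown with compound for 44 hours at 28 °C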
Details: Leishmania major promastigotes, resazurin fluorescence viability; at 10 µM; stronger effect = higher value
The whole screen tested about 200,000 compounds, of which about 18,000 (9%) were called active. For the sample, actives were picked, then their nearest neighbours and some compounds at random.

>  <molecule>
CC(=O)NCCC(=O)Nc1cc(S(=O)(=O)N2CCOCC2)ccc1N1CCOCC1

>  <inhibition (%)>
0.47

$$$$
>  <molecule>
O=C(COc1cccc2ccccc12)Nc1cc(S(=O)(=O)N2CCOCC2)ccc1N1CCOCC1

>  <inhibition (%)>
61.2

$$$$
>  <molecule>
COc1cccc(NC(=O)CN2CCN(c3nc(-c4cccc(OC)c4)cs3)CC2)c1

>  <inhibition (%)>
9.93

$$$$
>  <molecule>
CCOC(=O)N1CCN(Cc2nc3ccc([N+](=O)[O-])cc3c(=O)n2-c2cccc(OC)c2)CC1

>  <inhibition (%)>
8.07

$$$$
>  <molecule>
O=c1[nH]oc(O)c1-c1ncc(C(F)(F)F)cc1Cl

>  <inhibition (%)>
-7.85

$$$$
>  <molecule>
OCC1(Cc2ccccc2C(F)(F)F)CCN(Cc2cccc3cnccc23)CC1

>  <inhibition (%)>
88.2

$$$$
>  <molecule>
COC(=O)CSc1ncnc2c1cnn2-c1ccc(C)cc1C

>  <inhibition (%)>
2.35

$$$$
>  <molecule>
CC(=O)c1cccc(CN2CCC(CO)(Cc3ccccc3)CC2)c1

>  <inhibition (%)>
14

$$$$
>  <molecule>
Cc1cccc(NC(=S)Nc2ccc3cn[nH]c3c2)c1

>  <inhibition (%)>
5.93

$$$$
>  <molecule>
CN1CCN(c2ccc(S(=O)(=O)N3CCCCC3)cc2NC(=O)Cc2ccccc2F)CC1

>  <inhibition (%)>
67.6

$$$$
>  <molecule>
Cc1cc(C)c(NC(=O)CS(=O)CC(=O)Nc2cccnc2)c(C)c1 (stereo not drawn)

>  <inhibition (%)>
-5.42

$$$$
>  <molecule>
COc1cc(S(=O)(=O)N2CCOCC2)ccc1NC(=O)COc1ccc(N(C)S(=O)(=O)c2ccc(C)cc2)cc1

>  <inhibition (%)>
94

$$$$
>  <molecule>
CN(C)CCCCCN(C)Cc1cc2ccccc2o1

>  <inhibition (%)>
11.6

$$$$
>  <molecule>
CCOC(=O)CNC(=O)CSc1ccc2nnc(-c3cccnc3)n2n1

>  <inhibition (%)>
4.24

$$$$
>  <molecule>
Cn1cc(/C=C/c2nc3ccccc3c(=O)n2-c2cccc([N+](=O)[O-])c2)c2ccccc21

>  <inhibition (%)>
63.9

$$$$
>  <molecule>
O=C(CN1CCN(c2nc(-c3ccccc3)cs2)CC1)NCc1ccc2c(c1)OCO2

>  <inhibition (%)>
1.96

$$$$
>  <molecule>
CCOC(=O)C1(Cc2cccc(OC)c2)CCN(Cc2csc(C(C)=O)c2)CC1

>  <inhibition (%)>
92.9

$$$$
>  <molecule>
COc1ccc(NS(=O)(=O)c2ccc(O)c(C(=O)OCC(=O)NC3CCCCC3)c2)cc1

>  <inhibition (%)>
-3.84

$$$$
>  <molecule>
CN(C)N(C)C(=O)C(O)(c1ccccc1)c1ccccc1

>  <inhibition (%)>
-4.98

$$$$
>  <molecule>
CCOc1cc(N2CCOCC2)c(OCC)cc1NC(=O)c1ccc(C)s1

>  <inhibition (%)>
6.96

$$$$
>  <molecule>
CCOC(=O)CN(Cc1ccc(OC)c(OC)c1)S(=O)(=O)c1ccc(OC)cc1

>  <inhibition (%)>
0.46

$$$$
>  <molecule>
OCC1(Cc2ccccc2)CCN(Cc2cc3ccccc3o2)CC1

>  <inhibition (%)>
84.5

$$$$
>  <molecule>
CC1(C)CC(=O)C=C(N2CCOCC2)C1

>  <inhibition (%)>
-0.57

$$$$
>  <molecule>
COCCNC(=O)CCCn1c(=O)c2ccccc2n(Cc2cccc([N+](=O)[O-])c2)c1=O

>  <inhibition (%)>
4.7

$$$$
>  <molecule>
Cc1ccccc1NS(=O)(=O)CCCCC(Cl)(Cl)Cl

>  <inhibition (%)>
5.47

$$$$
>  <molecule>
O=C(O)Cc1sc(-c2ccc(C(=O)O)cc2)nc1-c1ccccc1

>  <inhibition (%)>
-1.45

$$$$
>  <molecule>
CCOC(=O)C1(Cc2cccc(OC)c2)CCN(C(C)CC(C)(C)O)CC1 (stereo not drawn)

>  <inhibition (%)>
-1.48

$$$$
>  <molecule>
COC(=O)c1c(NC(=O)CCCC(=O)O)sc2c1CCCCC2

>  <inhibition (%)>
-4.64

$$$$
>  <molecule>
Cc1ccc(S(=O)(=O)N(C)c2ccc(OCC(=O)NC3=NCCS3)cc2)cc1

>  <inhibition (%)>
1.37

$$$$
>  <molecule>
CCN1CCN(CCNC(=O)c2ccc(/C=C3/Sc4ccccc4N(Cc4cccc(C)c4)C3=O)cc2)CC1

>  <inhibition (%)>
101

$$$$
>  <molecule>
Cc1ccc(Nc2nc(CSc3nnnn3-c3ccccc3)cc(=O)[nH]2)cc1

>  <inhibition (%)>
97.7

$$$$
>  <molecule>
CCOC(=O)C1(Cc2ccccc2C(F)(F)F)CCN(C(=O)c2cc(C)n(C)n2)CC1

>  <inhibition (%)>
5.02

$$$$
>  <molecule>
O=C(Cc1ccccc1)N1CCN(S(=O)(=O)c2ccc([N+](=O)[O-])cc2)CC1

>  <inhibition (%)>
5.24

$$$$
>  <molecule>
Cc1cccc(C(=O)NCCCN2CCCC2=O)c1

>  <inhibition (%)>
-4.51

$$$$
>  <molecule>
CN1C(=O)/C(=C\c2ccc(-c3ccccc3)o2)SC1=S

>  <inhibition (%)>
-6.51

$$$$
>  <molecule>
COc1ccc(C)cc1NC(=S)Nc1ccccc1SC

>  <inhibition (%)>
5.88

$$$$
>  <molecule>
COc1ccc(CC(=O)Nc2cc(S(=O)(=O)N3CCCCC3)ccc2N2CCN(C)CC2)cc1

>  <inhibition (%)>
47

$$$$
>  <molecule>
O=C(CCc1ccccc1)Nc1nn[nH]n1

>  <inhibition (%)>
-3.55

$$$$
>  <molecule>
Cc1nn(Cc2ccccc2)c(C)c1C(=O)NCCN1C(=O)S/C(=C\c2ccc(F)cc2)C1=O

>  <inhibition (%)>
-6.47

$$$$
>  <molecule>
CN1CCN(CC(=O)Nc2cccc([N+](=O)[O-])c2)CC1

>  <inhibition (%)>
-5.42

$$$$
>  <molecule>
Cc1cc(=O)oc2c1c(C)nn2-c1ccc(Cl)cc1

>  <inhibition (%)>
-5.67

$$$$
>  <molecule>
CCN(CC)S(=O)(=O)c1cc([N+](=O)[O-])ccc1NNC(=O)Nc1ccccc1

>  <inhibition (%)>
31.2

$$$$
>  <molecule>
Brc1cc(/C=N/n2cnnc2)oc1Br

>  <inhibition (%)>
-0.54

$$$$
